// data source = PubChem BioAssay AID1159580

- procedure-summary: chemical genetic growth profiling, strain panel (AID 1159580);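 further: tested at 20 µM; growth read once vehicle control cultures reached saturation at 30 °C; 1 = growth at the plate median or of vehicle wells; lower values mean less growth of the strain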
- cond: S. cerevisiae deletion strains, growth OD, locus YIL125W, strain kgd1, active compounds read low
About 2,000 (36%) of roughly 5,500 compounds were called active. Inconclusive results (about 18%) are left out. Some of the results follow.
Recorded normalized growth, one value per entry.
property-measured: normalized growth

[[record]]
molecule = "Cc1cc(O)cc(=O)o1"
property_measured = "normalized growth"
measured_result = 0.984

[[record]]
molecule = "CC1(C)CC[C@]2(C(=O)O)CC[C@]3(C)C(=CCC4[C@@]5(C)CC[C@@H](O)C(C)(C)C5CC[C@]43C)C2C1 (stereo partly drawn)"
property_measured = "normalized growth"
measured_result = 1.01

[[record]]
molecule = "CC1(C)CC[C@]2(C)CC[C@]3(C)C(=CCC4[C@@]5(C)CC[C@H](O)C(C)(C)C5CC[C@]43C)C2C1 (stereo partly drawn)"
property_measured = "normalized growth"
measured_result = 0.947


* * *

- procedure-summary: chemical genetic growth profiling, strain panel (AID 1159580)
- cond: S. cerevisiae deletion strains, growth OD, locus YML094W, strain GIM5, active compounds read low
The campaign covered roughly 5,500 compounds. About 2,000 (36%) were called active. About 18% were inconclusive and are not listed. This is one part of the list.
property-measured: normalized growth

[[record]]
compound = "CCOC(=O)c1nc(-c2ccccc2)sc1C(=O)OCC"
property_measured = "normalized growth"
measured_result = "0.921 (inactive)"

[[record]]
compound = "COc1ccc(NC(=O)C(C)c2ccc(CC(C)C)cc2)cc1 (stereo not drawn)"
property_measured = "normalized growth"
measured_result = "0.903 (inactive)"

[[record]]
compound = "Cc1noc(C)c1C(=O)N1CCN(c2ncc(C(F)(F)F)cc2Cl)CC1"
property_measured = "normalized growth"
measured_result = "0.968 (inactive)"


* * *

- procedure-summary: chemical genetic growth profiling, strain panel (AID 1159580);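 further: tested at 20 µM; growth read once vehicle control cultures reached saturation at 30 °C; 1 = growth at the plate median or of vehicle wells; lower values mean less growth of the strain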
- cond: S. cerevisiae deletion strains, growth OD, locus YGL240W, strain doc1
About 2,000 (36%) of roughly 5,500 compounds were called active. Not shown: some 18% with an inconclusive outcome. No stated cut-off is given here; in the data, active means normalized growth mostly below about 0.91 (no sharp cut-off); inconclusive means no clear call, values can overlap the other calls; inactive means mostly above about 0.92. The list shows a part of the results.
Labels: active, inactive

[[record]]
molecule = "CC1(C)CC(O)C2(C)CCC3(C)C(=CCC4C5(C)CCC(O)C(C)(CO)C5CCC43C)C2C1 (configuration not stated)"
answer_label = "inactive"

[[record]]
molecule = "COc1cc(N)c(Cl)cc1C(=O)NC1CCN(Cc2ccccc2)CC1"
answer_label = "inactive"

[[record]]
molecule = "O=C(Nc1ccc(C(=O)O)c(O)c1)c1ccccc1"
answer_label = "inactive"

[[record]]
molecule = "OC(CCN1CCCCC1)(c1ccccc1)C1CC2C=CC1C2 (configuration not stated)"
answer_label = "inactive"

[[record]]
molecule = "N=C(N)c1ccc(OCCCCCOc2ccc(C(=N)N)cc2)cc1"
answer_label = "inactive"

[[record]]
molecule = "CCCCCCCCCCCC[C@H](C(=O)O)[C@@H](C)C(=O)O"
answer_label = "inactive"

[[record]]
molecule = "COC(=O)Nc1nc2ccc(Sc3ccccc3)cc2[nH]1"
answer_label = "inactive"

[[record]]
molecule = "CC(=O)O[C@H]1CC[C@@]2(C)C(CC[C@]3(C)C2CC=C2C4CC(C)(C)CC[C@]4(C)CC[C@]23C)C1(C)C (some centres not stated)"
answer_label = "inactive"

[[record]]
molecule = "COc1ccc2[nH]cc(CCN)c2c1"
answer_label = "inactive"

[[record]]
molecule = "CC1(C)CC[C@@]2(C(=O)O)C(C1)C1=CCC3[C@@]4(C)CC[C@H](O)C(C)(C)C4CC[C@@]3(C)[C@]1(C)C[C@@H]2O (some centres not stated)"
answer_label = "inactive"

[[record]]
molecule = "NC(Cc1c[nH]c2ccccc12)C(=O)O (configuration not stated)"
answer_label = "inactive"

[[record]]
molecule = "O=c1ccc2ccc(O)cc2o1"
answer_label = "inactive"

[[record]]
molecule = "C[C@H]1[C@H](C)CC[C@]2(CO)CC[C@]3(C)C(=CCC4[C@@]5(C)CC[C@H](O)C(C)(C)C5CC[C@]43C)[C@H]12 (some centres not stated)"
answer_label = "inactive"

[[record]]
molecule = "COc1c(-c2coc3cc4c(cc3c2=O)CC(O)C(C)(C)O4)ccc2c1C=CC(C)(C)O2 (configuration not stated)"
answer_label = "inactive"

[[record]]
molecule = "O=c1[nH]cc(F)c(=O)[nH]1"
answer_label = "inactive"

[[record]]
molecule = "OC(CCN1CCCC1)(c1ccccc1)C1CCCCC1 (configuration not stated)"
answer_label = "inactive"

[[record]]
molecule = "Nc1c2ccccc2nc2ccccc12"
answer_label = "inactive"

[[record]]
molecule = "O=C(CNC(=O)c1ccc(Cl)cc1)NO"
answer_label = "inactive"

[[record]]
molecule = "COc1cccc2c1C(=O)c1c(O)c3c(c(O)c1C2=O)C[C@@](O)(C(=O)CO)C[C@@H]3O[C@H]1C[C@H](N)[C@@H](O)[C@H](C)O1"
answer_label = "active"

[[record]]
molecule = "N#CC(O[C@@H]1O[C@H](CO[C@@H]2O[C@H](CO)[C@@H](O)[C@H](O)[C@H]2O)[C@@H](O)[C@H](O)[C@H]1O)c1ccccc1 (some centres not stated)"
answer_label = "inactive"

[[record]]
molecule = "CC1(C)CC[C@]2(C(=O)O)CC[C@]3(C)C(=CCC4[C@@]5(C)CC[C@H](O)[C@@](C)(CO)C5CC[C@]43C)C2C1 (some centres not stated)"
answer_label = "inactive"

[[record]]
molecule = "C[C@]12CCC(=O)C=C1CCC1C2[C@@H](O)C[C@@]2(C)C1CC[C@]2(O)C(=O)CO (some centres not stated)"
answer_label = "inactive"

[[record]]
molecule = "CCCOc1ccccc1-c1nc2n[nH]nc2c(=O)[nH]1"
answer_label = "inactive"

[[record]]
molecule = "COC1=C[C@@H]2[C@@H]3Cc4ccc(OC)c(O)c4[C@]2(CCN3C)CC1=O"
answer_label = "inactive"

[[record]]
molecule = "CC1(C)CC[C@]2(C)CC[C@]3(C)C(=CCC4[C@@]5(C)CC[C@H](O)C(C)(C)C5CC[C@]43C)C2C1 (some centres not stated)"
answer_label = "inactive"

[[record]]
molecule = "C#C[C@]1(O)CCC2C3CCC4=CC(=O)CC[C@@H]4C3CC[C@@]21C (some centres not stated)"
answer_label = "inactive"

[[record]]
molecule = "CC(=O)/C=C\\[C@@H]1[C@@]2(C)CCCC(C)(C)C2CC[C@@]1(C)O (some centres not stated)"
answer_label = "inactive"

[[record]]
molecule = "CC(CC(=O)C(O)C(C)(C)O)C1C(=O)CC2(C)C3=CCC4C(C)(C)C(OC5OCC(O)C(O)C5O)CCC45CC35C(O)CC12C (configuration not stated)"
answer_label = "inactive"

[[record]]
molecule = "COC(=O)Nc1nc2ccc(C(=O)c3ccccc3)cc2[nH]1"
answer_label = "active"

[[record]]
molecule = "COc1cc(C(=O)NCCCCCC(=O)O)cc(OC)c1OC"
answer_label = "inactive"

[[record]]
molecule = "CNCc1ccccc1"
answer_label = "inactive"

[[record]]
molecule = "C[C@@H]1OC(O[C@H]2C(O[C@H]3CC[C@@]4(C)C(CC[C@]5(C)C4CC=C4C6CC(C)(C)CC[C@]6(C(=O)O)CC[C@]45C)[C@]3(C)CO)OC[C@H](O)[C@@H]2O)[C@H](O)[C@H](O)[C@H]1O (some centres not stated)"
answer_label = "active"


* * *

- procedure-summary: chemical genetic growth profiling, strain panel (AID 1159580);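 further: tested at 20 µM; growth read once vehicle control cultures reached saturation at 30 °C; 1 = growth at the plate median or of vehicle wells; lower values mean less growth of the strain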
- cond: S. cerevisiae deletion strains, growth OD, locus YDL101C, strain DUN1, active compounds read low
Out of some 5,500 compounds screened, about 2,000 (36%) were called active. Inconclusive results (about 18%) are left out. This is one part of the list.
Recorded normalized growth, one value per entry.
property-measured: normalized growth

[[record]]
compound = "COC(=O)C[C@H]1C(C)(C)C2(O)OC34CC2C(=O)[C@]1(C)C3CC[C@]1(C)C4=CC(=O)O[C@H]1c1ccoc1 (stereo partly drawn)"
property_measured = "normalized growth"
measured_result = 1

[[record]]
compound = "O=[N+]([O-])c1cc(Cl)ccc1S(=O)(=O)c1ccccc1"
property_measured = "normalized growth"
measured_result = 0.98

[[record]]
compound = "CC(C)CC(N(C)C)C1(c2ccc(Cl)cc2)CCC1 (stereo not drawn)"
property_measured = "normalized growth"
measured_result = 1


* * *

Recorded normalized growth, one value per entry.
- procedure-summary: chemical genetic growth profiling, strain panel (AID 1159580);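 further: tested at 20 µM; growth read once vehicle control cultures reached saturation at 30 °C; 1 = growth at the plate median or of vehicle wells; lower values mean less growth of the strain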
- cond: S. cerevisiae deletion strains, growth OD, locus YMR307W, strain GAS1, active compounds read low
In all, about 5,500 compounds went through this assay and about 2,000 (36%) were called active. Another 18% or so got no clear call; they are omitted. The list shows a part of the results.
property-measured: normalized growth

[[record]]
compound = "CC(OCc1ccccc1)C(NC(=O)OC(C)(C)C)C(N)=O (centres undefined)"
measured_result = 1.07

[[record]]
compound = "COC(=O)/C(C)=C\\CC12OC(C)(C)C3CC(C=C4C(=O)c5c(O)c6c(c(CCC(C)(C)Cl)c5OC431)OC1(C)CCC(=C(C)C)C6C1)C2=O (centres undefined)"
measured_result = 0.955

[[record]]
compound = "N#C/C(NCc1cccs1)=C(\\C#N)NCc1c(F)cccc1Cl"
measured_result = 0.919

[[record]]
compound = "N=S(=O)(O)Cc1noc2ccccc12"
measured_result = 1.01

